system: DMPK; experiment: Dose-responsive DMPK reduction in DM1 C15 myotubes (EC-50); format: cell-based; conditions: DM1 C15 differentiated myotubes, transfection with Lipofectamine MessengerMax, 72 hours, 0.046-100 nM
measurement kind: log10(EC50) (log10 of the value in nM)
Please note: log10 values; quantity EC50; unit nM.

Worked cases, answers included:
{"substance": "313 (GGACGAUCUUGCCAUAGGUC; chemistry not given here) [compound 313]", "log10(EC50)": 0.56}
{"substance": "316 (AGCAGGAUGUUGUCGGGUUU; chemistry not given here) [compound 316]", "log10(EC50)": -0.64}
{"substance": "280 (UUGCCAUAGGUCUCCGCCGU; chemistry not given here) [compound 280]", "log10(EC50)": -0.43}
{"substance": "293 (GAAUGUCCGACAGUGUCUCC; chemistry not given here) [compound 293]", "log10(EC50)": -1.15}

In: Consider the substance 288 (CAGGGACAGCCGCUGGAACU; chemistry not given here) [compound 288] and give its measured log10(EC50).
Out: 0.78

In: // query: 270 (GGGCCUGGGACCUCACUGUC; chemistry not given here) [compound 270]
Out: -1.15

In: // query: 272 (CUCUGCCGCAGGGACAGCCG; chemistry not given here) [compound 272]
Out: -0.38

----------
system: DMPK; experiment: DMPK knockdown by transfected antisense oligonucleotides in DM1 C15 myotubes at 0.5 nM and 50 nM; type: cell-based; conditions: 0.5 nM oligonucleotide, 72 hours, qPCR, relative to vehicle control = 1.00
measurement kind: Normalized DMPK Remaining
Note: the reply should be a number with no unit written.

In: Test system DMPK; read-out Normalized DMPK Remaining; what value for 274 (UGCCCAUCCACGUCAGGGCC; chemistry not given here) [compound 274] ?
Out: 0.86

----------
system: DMPK; assay: DMPK knockdown by transfected antisense oligonucleotides in DM1 C15 myotubes at 0.5 nM and 50 nM; assay type: cell-based; details: 0.5 nM oligonucleotide, 72 hours, qPCR, relative to vehicle control = 1.00
measurement kind: Normalized DMPK Remaining
Note: the reply should be a number with no unit written.

Worked cases, answers included:
{"substance": "283 (GCCAAAGAAGAAGGGAUGUG; chemistry not given here) [compound 283]", "Normalized DMPK Remaining": 0.75}
{"substance": "261 (GAAGUCGGCCAGGCGGAUGU; chemistry not given here) [compound 261]", "Normalized DMPK Remaining": 0.82}
{"substance": "289 (AUGACAAUCUCCGCCAGGUA; chemistry not given here) [compound 289]", "Normalized DMPK Remaining": 0.58}

In: Consider the substance 353 (GGCGAAUACACCCAGCGCCC; chemistry not given here) [compound 353] and give its measured Normalized DMPK Remaining.
Out: 0.80

----------
tested on: DMPK; test: DMPK knockdown by transfected antisense oligonucleotides in DM1 C15 myotubes at 0.5 nM and 50 nM; format: cell-based; conditions: 0.5 nM oligonucleotide, 72 hours
measurement kind: Percent DMPK Reduction (%)
Just the number please, in %, no unit attached.

{"substance": "421 (GCGAAUACACCCAGCGCCCA; chemistry not given here) [compound 421]", "Percent DMPK Reduction (%)": 6.94}

In: Consider the substance 480 (AGGGAAAGCGCCUCCGAUAG; chemistry not given here) [compound 480] and give its measured Percent DMPK Reduction.
Out: -1.12

----------
Reported Normalized DMPK Remaining is given for each of the following substances.
test system: DMPK; assay: DMPK knockdown by transfected antisense oligonucleotides in DM1 C15 myotubes at 0.5 nM and 50 nM; format: cell-based; conditions: 0.5 nM oligonucleotide, 72 hours, relative to vehicle control = 1.00
Note: the reply should be a number with no unit written.

In: Consider the substance 441 (CAAUCUCCGCCAGGUAGAAG; chemistry not given here) [compound 441] and give its measured Normalized DMPK Remaining.
Out: 0.84

In: // query: 474 (AGUCGGCCAGGCGGAUGUGG; chemistry not given here) [compound 474]
Out: 0.94

In: // query: 436 (CCACUUCAGCUGUUUCAUCC; chemistry not given here) [compound 436]
Out: 0.78

----------
Reported Percent DMPK Reduction is given for each of the following substances.
system: DMPK; experiment: DMPK knockdown by transfected antisense oligonucleotides in DM1 C15 myotubes at 0.5 nM and 50 nM; format: cell-based; settings: 0.5 nM oligonucleotide, 72 hours, qPCR, relative to vehicle control
Just the number please, in %, no unit attached.

In: Consider the substance 372 (UGGCCAUGACAAUCUCCGCC; chemistry not given here) [compound 372] and give its measured Percent DMPK Reduction.
Out: 30.46

----------
system: DMPK; experiment: DMPK knockdown by transfected antisense oligonucleotides in DM1 C15 myotubes at 0.5 nM and 50 nM; format: cell-based; conditions: 0.5 nM oligonucleotide, 72 hours, qPCR, relative to vehicle control
Reported Percent DMPK Reduction is given for each of the following substances.
Just the number please, in %, no unit attached.

Worked cases, answers included:
{"substance": "323 (UUGAUGUCCCUGUGCACGUA; chemistry not given here) [compound 323]", "measure unit": "%", "Percent DMPK Reduction": 25.67}
{"substance": "305 (UGAUCUUCAUGGCAUACACC; chemistry not given here) [compound 305]", "measure unit": "%", "Percent DMPK Reduction": 27.70}
{"substance": "314 (UCAGCAGUGUCAGCAGGUCC; chemistry not given here) [compound 314]", "measure unit": "%", "Percent DMPK Reduction": 33.46}
{"substance": "346 (GACAGAACAACGGCGAACAG; chemistry not given here) [compound 346]", "measure unit": "%", "Percent DMPK Reduction": 21.41}
{"substance": "256 (UCCGCCAGGUAGAAGCGCGC; chemistry not given here) [compound 256]", "measure unit": "%", "Percent DMPK Reduction": 27.99}
{"substance": "337 (GUUUGCCCAUCCACGUCAGG; chemistry not given here) [compound 337]", "measure unit": "%", "Percent DMPK Reduction": 34.36}
{"substance": "295 (CCUUGUAGUGGACGAUCUUG; chemistry not given here) [compound 295]", "measure unit": "%", "Percent DMPK Reduction": 17.20}

From here, focus on the item given below.
In: Consider the substance 264 (AGGAUGUUGUCGGGUUUGAU; chemistry not given here) [compound 264] and give its measured Percent DMPK Reduction.
Out: 24.19

----------
test system: DMPK; experiment: DMPK knockdown by transfected antisense oligonucleotides in DM1 C15 myotubes at 0.5 nM and 50 nM; type: cell-based; conditions: 0.5 nM oligonucleotide, 72 hours, relative to vehicle control = 1.00
Classification field. Basis: Normalized DMPK Remaining. Definitions: lower: < 0.8; middle: ≥ 0.8 and < 0.9; upper: ≥ 0.9

Use the examples below as a reference point.
{"substance": "379 (CAGGUAGUUCUCAUCCUGGA; chemistry not given here) [compound 379]", "assigned class": "lower"}
{"substance": "401 (CUCUGCCGGGUGAGCACCUC; chemistry not given here) [compound 401]", "assigned class": "lower"}
{"substance": "466 (GUCCAGCAGGAUGUGUCGG; chemistry not given here) [compound 466]", "assigned class": "lower"}
{"substance": "479 (UUGUAGUGGACGAUCUUGCC; chemistry not given here) [compound 479]", "assigned class": "middle"}
{"substance": "402 (GACAAUCUCCGCCAGGUAGA; chemistry not given here) [compound 402]", "assigned class": "lower"}

In: Returns: class label. Input: 421 (GCGAAUACACCCAGCGCCCA; chemistry not given here) [compound 421]
Out: upper

In: // query: 391 (UCACCAACACGUCCCUCUCC; chemistry not given here) [compound 391]
Out: lower

In: // query: 427 (UUGUUCAUGAUCUUCAUGGC; chemistry not given here) [compound 427]
Out: middle

In: // query: 430 (GUCUAUGGCCAUGACAAUCU; chemistry not given here) [compound 430]
Out: upper

In: // query: 395 (AAGGGCGUCUGCCCAUAGAA; chemistry not given here) [compound 395]
Out: middle

In: // query: 387 (UCGAAGUUGCAUGUGUCGGU; chemistry not given here) [compound 387]
Out: lower

----------
Reported Percent DMPK Reduction is given for each of the following substances.
tested on: DMPK; assay: DMPK knockdown by transfected antisense oligonucleotides in DM1 C15 myotubes at 0.5 nM and 50 nM; assay type: cell-based; settings: 50 nM oligonucleotide, 72 hours

{"substance": "459 (GCUUGCUGCCUUCCCAGGCC; chemistry not given here) [compound 459]", "experimental system": "DMPK", "result": "81.01%"}
{"substance": "377 (UUUCCCGAGUAAGCAGGCAG; chemistry not given here) [compound 377]", "experimental system": "DMPK", "result": "44.89%"}
{"substance": "421 (GCGAAUACACCCAGCGCCCA; chemistry not given here) [compound 421]", "experimental system": "DMPK", "result": "69.72%"}

In: Consider the substance 471 (UCGGCCAGGCGGAUGUGGCC; chemistry not given here) [compound 471] and give its measured Percent DMPK Reduction.
Out: 83.04%

In: // query: 466 (GUCCAGCAGGAUGUGUCGG; chemistry not given here) [compound 466]
Out: 82.64%

In: // query: 416 (GCCUCGCGUAGUUGACUGGC; chemistry not given here) [compound 416]
Out: 91.10%

In: // query: 439 (CACCAACACGUCCCUCUCCU; chemistry not given here) [compound 439]
Out: 81.57%

In: // query: 417 (CCAGCAGGAUGUUGUCGGGU; chemistry not given here) [compound 417]
Out: 89.59%
